# System: MOLT-4 leukemia
# test-details: NCI tumour cell line growth inhibition, 48 h

- compound: "O=c1cc(-c2ccccc2)[nH]c2ccc(N3CCOCC3)cc12"
  study-target: "MOLT-4 leukemia"
  result-unit: "µM"
  comparison-sign: ">"
  TGI: 100
- compound: "COc1ccc([C@H]2CC(=O)C[C@H](c3ccc(OC)cc3)C23C(=O)c2ccccc2C3=O)cc1"
  study-target: "MOLT-4 leukemia"
  result-unit: "µM"
  comparison-sign: ">"
  TGI: 100
- compound: "Cn1c(=O)c2c(nc3n(CCCCl)c(=O)ccn23)n(C)c1=O"
  study-target: "MOLT-4 leukemia"
  result-unit: "µM"
  comparison-sign: ">"
  TGI: 100
- compound: "Cc1c[n+](=O)c2ccccc2n1[O-]"
  study-target: "MOLT-4 leukemia"
  result-unit: "µM"
  comparison-sign: ">"
  TGI: 100
- compound: "CN(C)CCCNC(=O)c1c(O)c2ccccc2[nH]c1=O"
  study-target: "MOLT-4 leukemia"
  result-unit: "µM"
  comparison-sign: ">"
  TGI: 100
- compound: "Cc1cccc(/C=C/c2c(C(=O)/C=C/c3ccccc3)c(C)nc3ccccc23)c1"
  study-target: "MOLT-4 leukemia"
  result-unit: "µM"
  comparison-sign: "="
  TGI: 3.72
- compound: "O=C(O)Cc1c(-c2ccc([N+](=O)[O-])cc2)c(=O)oc2cc(O)ccc12"
  study-target: "MOLT-4 leukemia"
  result-unit: "µM"
  comparison-sign: "="
  TGI: 26.8
- compound: "COc1cc(C(=O)/C=C/c2ccc(OCC#N)cc2)cc(OC)c1OC"
  study-target: "MOLT-4 leukemia"
  result-unit: "µM"
  comparison-sign: "="
  TGI: 90.7
- compound: "COc1ccc(-c2nn(-c3cccc(Cl)c3)cc2-c2cc(-c3cccs3)[nH]c(=S)n2)cc1"
  study-target: "MOLT-4 leukemia"
  result-unit: "µM"
  comparison-sign: "="
  TGI: 25.2
- compound: "CN1CC[C@]23c4c5ccc(O)c4O[C@H]2C(O)CC[C@@]3(O)[C@H]1C5 (stereo not given in full)"
  study-target: "MOLT-4 leukemia"
  result-unit: "µM"
  comparison-sign: ">"
  TGI: 100

###

# System: SK-MEL-28 melanoma
# test-details: NCI tumour cell line growth inhibition, 48 h
measurement-label: TGI

- compound: "Cc1ccc([N+](=O)[O-])cc1S(=O)(=O)Nc1ccc(C2=NOC(c3ccco3)C2)cc1 (stereo not given)"
  study-target: "SK-MEL-28 melanoma"
  measurement-label: "TGI"
  reported-measurement: "43.5 µM"
- compound: "CCOC(=O)NC(Nc1ncccn1)(C(=O)OCC)C(F)(F)F (stereo not given)"
  study-target: "SK-MEL-28 melanoma"
  measurement-label: "TGI"
  reported-measurement: "> 100 µM"
- compound: "COc1ccc2nc3cc(Cl)ccc3c(NCCNC(=O)Cn3c(=O)n(C)c(=O)c4c3nc3c(c(=O)n(C)c(=O)n3C)[n+]4[O-])c2c1"
  study-target: "SK-MEL-28 melanoma"
  measurement-label: "TGI"
  reported-measurement: "> 31.6 µM"
- compound: "Cc1c[n+](=O)c2ccccc2n1[O-]"
  study-target: "SK-MEL-28 melanoma"
  measurement-label: "TGI"
  reported-measurement: "> 100 µM"
- compound: "CC12O[C@]3([C@H](C(=O)N4CCOC43C)[C@H]1Cl)[C@H]1O[C@H]12 (stereo not given in full)"
  study-target: "SK-MEL-28 melanoma"
  measurement-label: "TGI"
  reported-measurement: "> 100 µM"
